Experiment notes: Cytotoxicity counterscreen for inhibitors of SARS-CoV-2 cell entry (AID 1645845); also: % is scaled to controls: 0 for no effect and ±100 for the full control effect; nearly all actives have a fitted effect of over 50% in size
Stated conditions: cell viability (SARS-CoV-2 entry assay cells); series mostly up to 57.1 µM
Records with an inconclusive call do not appear. Active and inactive are the calls of the source. Calls follow the shape of the full dose curve.
Overview of recorded activity change, negative = cytotoxicity for various compounds

Given the entry C[C@]12C=CC(=O)C=C1CC[C@@H]1[C@@H]2[C@@H](O)C[C@@]2(C)[C@H]1CC[C@]2(O)C(=O)COP(=O)(O)O , report its measured activity change, negative = cytotoxicity.
-0.915% [at 11.3 µM] (inactive)

Quick one: activity change, negative = cytotoxicity of CCCCCCCCCCCCCCCCCC(=O)[O][Al] ?
0.759% [at 5.25 µM] (inactive)

Query (compound): CN(C)CCNC(=O)COc1c2cccc1Cc1cccc(c1OCC(=O)NCCN(C)C)Cc1cccc(c1OCC(=O)NCCN(C)C)Cc1cccc(c1OCC(=O)NCCN(C)C)C2 ; field requested: activity change, negative = cytotoxicity
-11.8% [at 11.3 µM] (inactive)

Please look up its activity change, negative = cytotoxicity: CCCCC(CC)COc1ccc(-c2nc(-c3ccc(OC)cc3)nc(-c3ccc(OCC(CC)CCCC)cc3O)n2)c(O)c1 (stereo not given)
-8.22% [at 5.25 µM] (inactive)

// activity change, negative = cytotoxicity lookup, key: Cc1cc(-c2cnn3c(NCC4CC(C)(O)C4)cc(Oc4cccnc4)nc23)ccc1C(=O)NC1CC1 (stereo not given)
4.49% [at 5.25 µM] (inactive)

Further cases:
Recorded activity change, negative = cytotoxicity of NCCCC[C@H](N)C(=O)O , please.
2.36% [at 0.702 µM] (inactive)

// activity change, negative = cytotoxicity lookup, key: COc1cc2c(cc1O)CCN[C@]21CS[C@@H]2c3c(OC(C)=O)c(C)c4c(c3[C@H](COC1=O)N1[C@@H]2[C@H]2c3c(cc(C)c(OC)c3O)C[C@@H]([C@@H]1O)N2C)OCO4
-20.3% [at 11.3 µM] (inactive)

So what's the measured activity change, negative = cytotoxicity for this one? COCCNc1cc(NC(=O)N2CCCc3cc(CN4CCN(C)CC4=O)c(C=O)nc32)ncc1C#N
2.9% [at 11.3 µM] (inactive)

If you can, please state the reported activity change, negative = cytotoxicity value of [2H]N[C@@H](Cc1ccccc1)C(=O)N1CCC[C@H]1C(=O)N[C@@H](CCCNC(=N)N)C(=O)N1CCC[C@H]1C(=O)NCC(=O)NCC(=O)NCC(=O)NCC(=O)N[C@@H](CC(N)=O)C(=O)NCC(=O)N[C@@H](CC(=O)O)C(=O)N[C@@H](Cc1ccccc1)C(=O)N[C@@H](CCC(=O)O)C(=O)N[C@@H](CCC(=O)O)C(=O)N[C@H](C(=O)N1CCC[C@H]1C(=O)N[C@@H](CCC(=O)O)C(=O)N[C@@H](CCC(=O)O)C(=O)N[C@@H](Cc1ccc(O)cc1)C(=O)N[C@@H](CC(C)C)C(=O)O)[C@@H](C)CC .
2.97% [at 11.3 µM] (inactive)

Return reported activity change, negative = cytotoxicity; argument: Cc1ncc(C[n+]2csc(CCOP(=O)(O)OP(=O)(O)O)c2C)c(N)n1
3.84% [at 0.702 µM] (inactive)

Look up activity change, negative = cytotoxicity for this compound: NC[C@@H]1O[C@H](O[C@H]2[C@H](O)[C@H](O[C@H]3[C@@H](O)[C@H](N)C[C@H](N)[C@H]3O[C@H]3O[C@H](CN)[C@H](O)[C@H](O)[C@H]3N)O[C@@H]2CO)[C@@H](N)[C@@H](O)[C@@H]1O
2.87% [at 5.25 µM] (inactive)

Entry under review: CC1CCC(n2c3cnccc3c3cnc(Nc4ccc5c(n4)CCN(C(=O)CO)C5)nc32)CC1 (stereo not given) . Reported activity change, negative = cytotoxicity?
4.82% [at 11.3 µM] (inactive)

I have this compound here, CN1CCN(C(=O)[C@H]2[C@@H](C(=O)O)[C@H]3CC[C@@H]2O3)CC1 , and I need its recorded activity change, negative = cytotoxicity.
2.39% [at 11.3 µM] (inactive)

Can you share its activity change, negative = cytotoxicity? I mean this compound: Cc1cc2nc3c(=O)[nH]c(=O)nc-3n(C[C@@H](O)[C@@H](O)[C@@H](O)COP(=O)(O)O)c2cc1C
3.55% [at 11.3 µM] (inactive)

I would be grateful if you could share the reported activity change, negative = cytotoxicity for NC[C@@H]1O[C@H](O[C@H]2[C@@H](O)[C@H](O[C@@H]3[C@@H](O)[C@H](N)C[C@H](N)[C@H]3O[C@H]3O[C@H](CO)[C@@H](O)[C@H](O)[C@H]3N)O[C@@H]2CO)[C@H](N)[C@@H](O)[C@@H]1O .
-2.38% [at 0.702 µM] (inactive)
